Target: GABA A receptor alpha-6/beta-2/gamma-2 (Rattus norvegicus) (UniProt P18508+P30191+P63138)
Assay: Displacement of [3H]-Ro- 15-4513 from alpha-6 beta2 gamma2 subunits of Rat GABA-A receptor expressed in Sf-9 insect cell membrane
measured attribute: inhibition
Enter the number, and then the unit.

Known results for compounds:
INSERT INTO results (compound, result) VALUES
  ('O=C1CNc2cccc3c2N1Cc1c(-c2noc(C4CC4)n2)ncn1-3', '14.7%'),
  ('CN1Cc2cccc3c2N(Cc2c(-c4noc(C5CC5)n4)ncn2-3)C1=O', '16.3%'),
  ('O=C1CC(c2ccccc2)c2cccc3c2N1Cc1c(-c2noc(C4CC4)n2)ncn1-3 (centres undefined)', '13.6%'),
  ('O=C1CCc2cccc3c2N1Cc1c(-c2noc(C4CC4)n2)ncn1-3', '0%'),
  ('O=C1OCc2cccc3c2N1Cc1c(-c2noc(C4CC4)n2)ncn1-3', '14.3%'),
  ('CC1(C)CC(=O)N2Cc3c(-c4noc(C5CC5)n4)ncn3-c3cccc1c32', '35%'),
  ('CC(C)(C)OC(=O)N1CC(=O)N2Cc3c(-c4noc(C5CC5)n4)ncn3-c3cccc1c32', '13.5%'),
  ('CC(C)N1Cc2cccc3c2N(Cc2c(-c4noc(C5CC5)n4)ncn2-3)C1=O', '20.9%');

Now look at this one.
## Input Consider the compound COn1c(=O)n2c3c(cccc31)-n1cnc(-c3noc(C4CC4)n3)c1C2 and give its measured inhibition.
## Output 36.4%
